The origin of these recorded values is patent US12637427B2.

Target: recombinant human ALDH-2 (Homo sapiens)
Sequence (P05091 18-517): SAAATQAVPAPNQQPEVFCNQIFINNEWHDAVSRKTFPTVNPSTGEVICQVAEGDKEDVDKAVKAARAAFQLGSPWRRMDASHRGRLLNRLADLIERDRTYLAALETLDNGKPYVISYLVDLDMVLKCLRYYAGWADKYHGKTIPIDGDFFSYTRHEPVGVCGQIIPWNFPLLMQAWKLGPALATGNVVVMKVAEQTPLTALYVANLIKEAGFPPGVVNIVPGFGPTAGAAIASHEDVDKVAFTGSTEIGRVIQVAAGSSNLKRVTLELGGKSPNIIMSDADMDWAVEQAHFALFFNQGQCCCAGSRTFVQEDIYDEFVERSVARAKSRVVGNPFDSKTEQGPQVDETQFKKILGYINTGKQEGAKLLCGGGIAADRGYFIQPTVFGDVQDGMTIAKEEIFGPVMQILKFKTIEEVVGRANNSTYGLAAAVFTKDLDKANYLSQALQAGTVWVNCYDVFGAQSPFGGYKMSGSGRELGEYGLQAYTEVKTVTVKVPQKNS
Test: ALDH-2 inhibition assay
Details: 60 min pre-incubation; 10 μM = highest concentration tested; read-out: Enzymatic Assays IC50 ALDH2
observable: log10(IC50) (log10 of the value in nM)
Give log10 of IC50, with IC50 taken in nM.

The following molecules have reported results that may help.
Qu. Name the value of log10(IC50) reported for O=C(NCc1ccc(-c2cccc(=O)[nH]2)nc1)c1ccccc1Cl when tested on recombinant human ALDH-2 (Homo sapiens).
Ans. 2.07

Qu. Answer briefly: log10(IC50) recorded on recombinant human ALDH-2 (Homo sapiens) for O=C(NCc1ccc(-c2[nH]c(=O)ccc2F)cc1)c1c(Cl)cccc1Cl
Ans. 1.43

Qu. Answer briefly: log10(IC50) recorded on recombinant human ALDH-2 (Homo sapiens) for Cc1cccc(Cl)c1C(=O)NCc1ccc(-c2cccc(=O)[nH]2)nc1
Ans. 1.00

Qu. Using recombinant human ALDH-2 (Homo sapiens) as the test system, report measured log10(IC50) of Cc1cccc(Cl)c1C(=O)NCc1ccc(-c2[nH]c(=O)ccc2F)cc1 .
Ans. 0.95

Okay, next one:
Qu. Recall the reported log10(IC50) of O=C(NCc1ccc(-c2cccc(=O)[nH]2)cc1)c1ccccc1Cl when tested on recombinant human ALDH-2 (Homo sapiens).
Ans. 2.14
